Assay: Selectivity index, ratio of CC50 for human MT4 cells to EC50 for HIV-2 ROD infected in human MT4 cells
Format: toxicity, cell-based
Details: read-out: Ratio CC50/EC50
This listing pairs compounds with measured selectivity ratio.

See these solved cases before continuing.
COc1ccc(N(C)C(=O)[C@H](Cc2cc(F)cc(F)c2)NC(=O)CN2CCN(C(=O)c3cccc([N+](=O)[O-])c3)CC2=O)cc1 < 1
COc1ccc(N(C)C(=O)[C@H](Cc2cc(F)cc(F)c2)NC(=O)CN2CCN(C(=O)c3cccc(C(F)(F)F)c3)CC2=O)cc1 < 1
COc1ccc(N(C)C(=O)[C@H](Cc2ccccc2)NC(=O)CN2CCN(C(=O)c3cccc(N)c3)CC2=O)cc1 > 8.5
COc1ccc(N(C)C(=O)[C@H](Cc2cc(F)cc(F)c2)NC(=O)CN2CCN(C(=O)c3ccc([N+](=O)[O-])cc3)CC2=O)cc1 < 1
COc1ccc(N(C)C(=O)[C@H](Cc2ccccc2)NC(=O)CN2CCN(C(=O)c3cccc([N+](=O)[O-])c3)CC2=O)cc1 < 1

Query (compound): COc1ccc(N(C)C(=O)[C@H](Cc2cc(F)cc(F)c2)NC(=O)CN2CCN(C(=O)c3ccc(Cl)cc3)CC2=O)cc1 ; field requested: selectivity ratio
< 1

Query (compound): COc1ccc(N(C)C(=O)[C@H](Cc2ccccc2)NC(=O)CN2CCN(C(=O)c3ccc([N+](=O)[O-])cc3)CC2=O)cc1 ; field requested: selectivity ratio
< 1

Query (compound): COc1ccc(N(C)C(=O)[C@H](Cc2ccccc2)NC(=O)CN2CCN(C(=O)c3ccc(Cl)cc3)CC2=O)cc1 ; field requested: selectivity ratio
< 1

Query (compound): COc1ccc(N(C)C(=O)[C@H](Cc2cc(F)cc(F)c2)NC(=O)CN2CCN(C(=O)c3cccc(N)c3)CC2=O)cc1 ; field requested: selectivity ratio
> 14

Query (compound): COc1ccc(N(C)C(=O)[C@H](Cc2ccccc2)NC(=O)CN2CCN(C(=O)c3cccc(C(F)(F)F)c3)CC2=O)cc1 ; field requested: selectivity ratio
< 1

Query (compound): COc1ccc(N(C)C(=O)[C@H](Cc2ccccc2)NC(=O)CN2CCN(C(=O)c3cccc(F)c3)CC2=O)cc1 ; field requested: selectivity ratio
> 50

Query (compound): COc1ccc(N(C)C(=O)[C@H](Cc2ccccc2)NC(=O)CN2CCN(C(=O)c3ccccc3)CC2=O)cc1 ; field requested: selectivity ratio
> 67

Query (compound): COc1ccc(N(C)C(=O)[C@H](Cc2cc(F)cc(F)c2)NC(=O)CN2CCN(C(=O)c3ccc(Br)cc3)CC2=O)cc1 ; field requested: selectivity ratio
< 1

Query (compound): COc1ccc(N(C)C(=O)[C@H](Cc2ccccc2)NC(=O)CN2CCN(C(=O)c3ccc(N)cc3)CC2=O)cc1 ; field requested: selectivity ratio
> 8.2

Query (compound): COc1ccc(N(C)C(=O)[C@H](Cc2ccccc2)NC(=O)CN2CCN(C(=O)c3ccc(Br)cc3)CC2=O)cc1 ; field requested: selectivity ratio
< 1
